MEASUREMENT_NAME: melting point

Worked set:
CC=Nc1cc(CO)cc(Nc2c3ccccc3nc3ccccc23)c1	158 to 161 °C
OCc1cc(N2CCCC2)c(Br)cn1	108 to 110 °C
COCOc1cc2c(cc1-c1cc(-c3ccc(C(=O)O)cc3)ccc1-c1ccccc1)C(C)(C)CCC2(C)C	90 to 94 °C
CCCCc1nc(C)c(CCC(=S)N(C)C)c(=O)n1Cc1ccc(-c2ccccc2-c2nnn[nH]2)cc1	76.2 to 81.2 °C
CC(=O)O[C@H]1CS[C@H](C(=O)O)O1 (relative stereo)	111 °C

INPUT: Which melting point is reported for this molecule? `Nc1cc(Cl)ccc1-n1cccc1`
OUTPUT: 89 to 90 °C

INPUT: Record: `O=[N+]([O-])c1cc(Cl)ccc1I(Cl)Cl`
OUTPUT: 53 to 60 °C

INPUT: And for `Cc1cccc(-c2nc3ccc(OCCCCl)cc3n2Cc2ccccc2)c1` ?
OUTPUT: 97 °C

INPUT: `Clc1cc(Cl)c(Oc2c(Cl)ncnc2Cl)c(Cl)c1` ?
OUTPUT: 104 to 105 °C

INPUT: Now consider `Cc1cnc2c(=O)[nH]c3cc(Cl)c(Cl)cc3n12` and answer again.
OUTPUT: > 300 °C

* * *

Reported melting point values for the following compounds.

INPUT: Reported melting point, compound `CCOC(=O)N=C(NCCCc1c[nH]cn1)NCCC(c1ccccc1)c1ccccc1` : ____
OUTPUT: 125 to 126 °C

INPUT: Next compound up: `CC(=O)N(C)c1nc(CN2CCN(C(c3ccccc3)c3ccccc3)CC2)cs1`
OUTPUT: 140 to 142 °C

INPUT: Note, next up: `O=C1C(=O)N(Cc2ccc(O)cc2)c2ccc(S(=O)(=O)N3CCC[C@H]3COc3ccccc3)cc21`
OUTPUT: 170 to 172 °C

* * *

MEASUREMENT_NAME: melting point (°C)
Field format: number, assumed °C, no unit text.

// below: answered compounds
CCOC(=O)c1cn2ccncc2n1	179
CC1(C)c2ccccc2N2Cc3cc(N=Nc4ccc([N+](=O)[O-])cc4)ccc3OC21C (stereo unspecified)	156

Then this compound:
INPUT: Quick one: melting point for CC(=O)Nc1ccc2c(c1)CC1CC(=O)NN=C21 (single isomer, unassigned; (-)) ?
OUTPUT: 307

* * *

MEASUREMENT_NAME: melting point

C[C@@H]1N(C)C(C)(C)CO[C@@]1(O)c1ccc(Cl)cc1	167 to 169 °C
C=CCOc1cccc(-n2cnc(-c3nc(CC)no3)c2)c1	73 to 74 °C
CCOC(=O)c1nnc2ccc(I)cc2c1O	242 to 244 °C
CC#CCOc1cc(Nc2ccccc2)ncn1	159 °C
O=C(Nc1nc(-c2ccco2)c(C(=O)c2ccnc(N3CCOCC3)c2)s1)c1ccncc1	270 to 273 °C

INPUT: Fill in the blank: the reported melting point of `N#CC(=CC(=O)c1ccccc1)C(=O)O` is ____.
OUTPUT: 74 to 75 °C

INPUT: Please give the result for `CC(C)(CNC(=O)COCC(=O)O)SN=O` too.
OUTPUT: 81 to 83 °C

INPUT: Repeat for the following molecule: `COc1cc2c(c(Cl)c1Cl)C(=O)CCC2`
OUTPUT: 132 °C

* * *

MEASUREMENT_NAME: melting point

Observe how each entry below is paired with its result.
CCCCCCCCCCCCCCCCCCS(=O)(=O)c1ccc(C)cc1	79 to 80 °C
CN(C)c1ncnc2[nH]c(-c3ccc(Cn4ccnc4)cc3)cc12	273 to 275 °C
O=C(NCCCc1ccncc1)N(CCC12CC3CC(CC(C3)C1)C2)C1CC1	108 to 116 °C
COc1ccc(Cc2ccc3c(c2)OCO3)c(OC)c1	51 °C
C=CCCCCCCCCNC(=O)N(C)O	58 to 59 °C
O=C(NC(=O)N(SN1CCCCC1=O)c1ccc(Oc2ccc(C(F)(F)F)cc2Cl)cc1F)c1c(F)cccc1F	139 to 141 °C

INPUT: # query: melting point of entry `CCCC(=O)C(=CNc1ccc(OC(=O)c2ccccc2)cc1OC)C(=O)OCC`
OUTPUT: 85 to 87 °C

* * *

melting point values by entry

Below are worked cases with known answers.
N[C@@H](CCC(=O)O)C(=O)N[C@@H](Cc1ccccc1)C(=O)O	147 to 149 °C
CCCNc1ncnc2c1ncn2CCCN1CCC(COc2ccccc2)CC1	62 to 63 °C
CN1Cc2ccccc2[C@H]2c3cccc4c3[C@H](CN4)C[C@@H]21 (relative stereo)	184 to 185 °C

INPUT: Which melting point value belongs to CN(C)c1ccc(CN2C(=O)C3(COc4cc5c(cc43)OCCO5)c3ccccc32)cn1 (stereo not given) ?
OUTPUT: 93 to 95 °C

INPUT: Field entry: CCCCOc1ccc(C(=O)Nc2ccc3cc(C(C)N4CCCC4)cnc3c2C)cc1 (stereo not given)
OUTPUT: 136 to 139 °C

INPUT: `Cc1nc(N2CCN(Cc3ccccc3)C2=O)sc1C(=O)NCc1cccnc1` ?
OUTPUT: 153 to 154 °C

INPUT: Param item: O=CC(Br)c1ccc(Cl)cc1 (stereo not given)
OUTPUT: 178 °C

INPUT: What do you have for `O=C(O)c1ccc(CSc2nnc(S)s2)cc1` ?
OUTPUT: 230 to 232 °C

INPUT: Same question, `CS(=O)(=O)c1ccc(Cl)cc1[N+](=O)[O-]` this time
OUTPUT: 145 °C

INPUT: Same again, this time with `CCCCc1oc2ccccc2c1C(=O)Nc1ccc2c(Br)c(O)ccc2c1`
OUTPUT: 195 to 197 °C

INPUT: Note, next up: `CC(C)(CO)CCCCN1C(=O)c2ccccc2C1=O`
OUTPUT: 74.8 to 75 °C

INPUT: Continue with `CN(C)CCCCN1CCOc2cc3ncc(C#N)c(Nc4ccc(F)c(Cl)c4)c3cc21`
OUTPUT: 105 °C

INPUT: Next compound: `N#CCc1cc(F)cc(Cc2nc3c(F)c(F)cc(F)c3s2)c1`
OUTPUT: 91 to 94 °C

* * *

MEASUREMENT_NAME: melting point

CC(Cc1c[nH]c2ccccc12)NC(=O)C=C1CCC(c2ccccc2)(N(C)C)CC1 (stereo not given)	184 to 187 °C
O=C(CCCCCCS(=O)(=O)c1ccccc1)c1ncco1	55 to 56 °C
COc1cc2oc(=O)c3c(c2c(OC)c1OC)CCN(CC(C)=O)C3	114 to 116 °C

INPUT: Item under review: CCC(O)(c1ccc(OCCN(C)C)cc1)c1cccc(C(F)(F)F)c1 (stereo not given) . Reported melting point?
OUTPUT: 69 to 70 °C

INPUT: Also check `O=Cc1ccc(OCC=Cc2ccccc2)cc1`
OUTPUT: 89.5 to 90.5 °C

INPUT: // next record CCOC(=O)CCN1C(=O)C(NC(=O)OCc2ccccc2)N=C(c2ccccc2)c2ccccc21 (stereo not given)
OUTPUT: 57 to 59 °C

INPUT: // repeat for `COc1cccc(Cc2ccc(-c3c[nH]nc3N)cc2)c1` and report
OUTPUT: 118 to 120 °C

INPUT: Same again, this time with COc1ccc2c(c1)CC(C(N)=O)N2 (stereo not given)
OUTPUT: 228 to 229 °C

INPUT: What do we get for `COc1cc(C)c(/C=C/c2nc3c(c(=O)n(C)c(=O)n3C)n2C)cc1C` ?
OUTPUT: > 280 °C

INPUT: Likewise for CNC1(c2ccccc2Cl)C(=O)Nc2c(F)cc(Cl)cc21 (stereo not given) ?
OUTPUT: 219 °C

* * *

MEASUREMENT_NAME: melting point

Examples from the recorded data:
Cn1ccnc1COc1ccccc1N	114 to 116 °C
CCCCc1csc2ccc3[nH]c4c(c3c12)CN(C)CC4	192 to 193 °C
COc1ccc2c(c1)c(C(C)C(=O)O)cc(=O)n2Cc1ccccc1Cl (stereo unspecified)	187 to 188 °C
Cc1cc(C)c2cc(C3CCNCC3)sc2c1	83 to 88 °C
CC(C)C[C@H](NC(=O)[C@H](Cc1ccccc1)NCC(S)C(N)Cc1ccccc1)C(=O)O (stereo partly specified)	123 to 160 °C

INPUT: Please give the measured melting point for this molecule: `Nc1ccccc1COc1ccn(-c2ccc(Cl)cc2)n1`
OUTPUT: 81 to 83 °C

INPUT: Note, next up: `COc1cccc(CCNC(=S)Nc2nc3ccccc3[nH]2)c1`
OUTPUT: 161 to 167 °C

INPUT: Can you check COC(=O)C(Cc1ccc(OC)c(C(=O)NCc2ccc(C(F)(F)F)cc2)c1)S(C)(=O)=O (stereo unspecified) next?
OUTPUT: 144 to 145 °C

INPUT: Now the same for `COC(=O)C[C@H](CC(=O)O[Si](C)(C)C(C)(C)C)O[Si](C)(C)C(C)(C)C`
OUTPUT: 44 to 46 °C

INPUT: Next molecule: `CC1(C)Cc2nc(N)sc2C(C)(C)C1`
OUTPUT: 120 to 122 °C

INPUT: Also `CC(C)Oc1cc(-n2nc(C(F)F)n(C)c2=O)c(Cl)cc1Cl` , if possible.
OUTPUT: 95 to 97 °C
